Target: human EGFR (Homo sapiens (Human), UniProt P00533)
Sequence (P00533 668-1210): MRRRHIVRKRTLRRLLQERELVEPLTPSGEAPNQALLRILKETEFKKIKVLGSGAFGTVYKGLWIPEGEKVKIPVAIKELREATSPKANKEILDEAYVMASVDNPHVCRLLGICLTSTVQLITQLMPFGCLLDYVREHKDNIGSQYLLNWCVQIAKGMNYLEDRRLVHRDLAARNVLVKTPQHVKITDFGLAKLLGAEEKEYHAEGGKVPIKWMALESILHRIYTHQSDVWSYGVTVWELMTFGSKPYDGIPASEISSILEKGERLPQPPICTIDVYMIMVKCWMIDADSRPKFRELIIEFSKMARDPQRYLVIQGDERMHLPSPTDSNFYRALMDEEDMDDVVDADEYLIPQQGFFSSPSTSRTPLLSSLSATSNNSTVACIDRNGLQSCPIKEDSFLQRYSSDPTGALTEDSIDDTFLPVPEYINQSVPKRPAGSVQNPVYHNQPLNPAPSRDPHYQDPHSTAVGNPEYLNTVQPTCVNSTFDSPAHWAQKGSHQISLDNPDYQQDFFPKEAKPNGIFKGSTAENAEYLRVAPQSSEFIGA
Experiment: EGFR LANTHASCREEN Eu Kinase Binding Assay
Details: IC50 value ± standard deviation; truncated GST-labeled EGFR, kinase tracer 199; read-out: hEGFR Rel IC50
Experimental: BTK and EGFR in Vitro Assays: The BTK and EGFR biochemical assays utilize LANTHASCREEN® Eu Kinase Binding Assays from Thermo Fisher Scientific, measuring the binding of the kinase with a fluorinated tracer. […] The components of the assay (compound, enzyme/antibody, tracer) are assembled and incubated for 30 min prior to being read on a Perkin-Elmer EnVision with excitation at 340 nm, tracer emission at 665 nm, and antibody emission at 615 nm. […]
Provide the reported IC50 of each item.
# output: numeric value plus its unit

Reference set, count: 3
{"compound": "C=CC(=O)N1CC(C)(Nc2cncc(-c3cnc(Oc4cccc(Cl)c4)nc3)c2)C1 [Example 12]", "IC50": "0.509 µM"}
{"compound": "C=CC(=O)N1CC(Nc2cncc(-c3cnc(Oc4cccc(Cl)c4F)nc3)c2)C1 [Example 2]", "IC50": "0.121 µM"}
{"compound": "C=CC(=O)N1CCC(Nc2cncc(-c3cnc(Nc4cccc(C)n4)nc3)c2)CC1 [Example 20]", "IC50": "2.22 µM"}

# batch size: 6; output IC50 per entry
1. C=CC(=O)N1CC(Nc2cncc(-c3cnc(Oc4cccc(Cl)c4)nc3)c2)C1 [Example 7]
2. C=CC(=O)N1CC(Nc2cncc(-c3cnc(Oc4cccc(OC(F)F)c4)nc3)c2)C1 [Example 4]
3. C=CC(=O)N1CC(Nc2cncc(-c3cnc(Oc4ccccc4)nc3)n2)C1 [Example 28]
4. C=CC(=O)N1CCC(Nc2cncc(-c3cnc(Nc4cccc(Cl)c4)nc3)c2)CC1C (centres unmarked) [Example 47]
5. C=CC(=O)N1CC(Nc2cncc(-c3cnc(Oc4ccc(Cl)cc4)nc3)n2)C1 [Example 41]
6. C=CC(=O)N1CC(Nc2cncc(-c3cnc(Oc4cc(F)cc(F)c4)nc3)n2)C1 [Example 30]

a:
1: 0.129 µM; 2: 0.872 µM; 3: 1.47 µM; 4: 6.1 µM; 5: 2.11 µM; 6: 1.08 µM

Your task in this section: give IC50 for each listed record.
1. C=CC(=O)N1CCC(Nc2cncc(-c3cnc(Oc4cccc(Cl)c4)nc3)c2)CC1 [Example 1]
2. C=CC(=O)N1CC[C@H](Nc2cncc(-c3cnc(Nc4cccc(OC(F)(F)F)c4)nc3)n2)C1 [Example 33]
3. C#Cc1cccc(Oc2ncc(-c3cncc(NC4CN(C(=O)C=C)C4)c3)cn2)c1 [Example 14]
4. C=CC(=O)N1CC[C@H](Nc2cncc(-c3cnc(Nc4ccccc4OC(F)(F)F)nc3)n2)C1 [Example 36]
5. CN(C)C/C=C/C(=O)N1CCC(Nc2cncc(-c3cnc(Nc4cccc(Cl)c4)nc3)n2)CC1 [Example 46]
6. C=CC(=O)N1CC(Nc2cncc(-c3cnc(Nc4ccccc4OC(F)(F)F)nc3)n2)C1 [Example 43]
7. C=CC(=O)N1CC(Nc2cncc(-c3cnc(Oc4cccc(Cl)c4)nc3)n2)C1 [Example 31]
8. C=CC(=O)N1CC(Nc2cncc(-c3cnc(Oc4cccc(OC)c4)nc3)n2)C1 [Example 42]

a:
1. 0.47 µM
2. 22.2 µM
3. 0.242 µM
4. 15.2 µM
5. 6.04 µM
6. 0.676 µM
7. 0.366 µM
8. 2.82 µM
